# test.system: human endothelial lipase (EL) (Homo sapiens, UniProt Q9Y5X9)
# Sequence (Q9Y5X9 21-500): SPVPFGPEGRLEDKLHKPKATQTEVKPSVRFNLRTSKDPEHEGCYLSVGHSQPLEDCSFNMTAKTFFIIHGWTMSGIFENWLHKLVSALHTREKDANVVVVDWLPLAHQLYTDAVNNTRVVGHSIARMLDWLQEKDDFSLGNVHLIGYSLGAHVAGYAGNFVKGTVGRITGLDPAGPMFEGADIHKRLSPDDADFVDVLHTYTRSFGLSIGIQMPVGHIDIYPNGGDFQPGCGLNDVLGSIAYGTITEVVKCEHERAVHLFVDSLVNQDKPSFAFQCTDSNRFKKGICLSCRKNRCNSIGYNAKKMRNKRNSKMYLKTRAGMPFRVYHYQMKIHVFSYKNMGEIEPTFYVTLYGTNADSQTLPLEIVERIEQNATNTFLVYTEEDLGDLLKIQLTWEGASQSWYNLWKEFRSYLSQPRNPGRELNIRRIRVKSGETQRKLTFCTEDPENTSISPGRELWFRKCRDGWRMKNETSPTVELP
# method.summary: Endothelial Lipase Assay, cell surface lipase activity (human)
# stated.conditions: cells expressing human EL, PLA1 substrate 10 μM, fluorescence reaction rate; several values in a cell are repeat determinations
metric: IC50 (nM)

[a] O=C(CCCCCCc1ccccc1)C(=O)NCc1nnc(-c2ccc(OCn3nnc4ccccc43)cc2)o1
[b] O=C(CCCCCCc1ccccc1)C(=O)NCc1nnc(-c2ccc(F)cc2)o1
[c] O=C(CCCCCCc1ccccc1)C(=O)NCc1nnc(-c2ccc(OCc3cc(F)cc(F)c3)cc2)s1
Asked: Sort by IC50 with smallest numbers at the start of the list. List labels; respect the requested ordering.
Given back: a, b, c
(a: 230 nM, b: 735 nM, c: 2320 nM)

====

# test.system: human endothelial lipase (EL) (Homo sapiens)
# method.summary: Endothelial Lipase Assay, cell surface lipase activity (human)
# stated.conditions: cells expressing human EL, PLA1 substrate 10 μM, fluorescence reaction rate; several values in a cell are repeat determinations
pIC50: −log10 of the molar value.
metric: pIC50

Example entries begin here.
molecule="O=C(CCCCCCc1ccccc1)C(=O)NCc1nnc(-c2ccc(OCc3ccccc3F)cc2)o1 [Compound 85]" assay_value=6.65
molecule="COc1cccc(CCCCCCC(=O)C(=O)NCc2nnc(-c3ccc4ccccc4c3)o2)c1 [Compound 31]" assay_value=6.85
molecule="O=C(CCCCCCc1ccccc1)C(=O)NCc1nnc(-c2ccc(NCc3cccnc3)cc2)o1 [Compound 124]" assay_value=5.44
molecule="O=C(CCCCCCc1ccccc1)C(=O)NCc1nnc(-c2ccc(OCc3ccncn3)cc2)o1 [Compound 107]" assay_value=6.46

[P] Cc1ncsc1CCCCCCC(=O)C(=O)NCc1nnc(-c2ccc(OCc3cccc(F)c3)cc2)s1 [Compound 154]
[Q] O=C(CCCCCCc1ccccc1)C(=O)NCc1nnc(-c2ccccc2)s1 [Compound 74]
[R] O=C(CCCCCCc1ccccc1)C(=O)NCc1nnc(-c2ccc(Cl)cc2)o1 [Compound 2]
[S] COc1ccccc1-c1nnc(CNC(=O)C(=O)CCCCCCc2ccccc2)o1 [Compound 6]
Asked: Returns the items ordered by pIC50, from maximum to minimum. List labels; respect the requested ordering.
Given back: P, Q, R, S
(P: 7.44, Q: 6.66, R: 6.31, S: 5.58)

====

# test.system: human endothelial lipase (EL) (Homo sapiens)
# method.summary: Endothelial Lipase Assay, cell surface lipase activity (human)
# stated.conditions: cells expressing human EL, PLA1 substrate 10 μM, fluorescence reaction rate; several values in a cell are repeat determinations
metric: IC50 (nM)

smiles_string=Cc1ccc(-c2nnc(CNC(=O)C(=O)CCCCCOc3ccccc3)o2)cc1 test_system="human endothelial lipase (EL) (Homo sapiens)" assay_value=3190
smiles_string=O=C(CCCCCCc1ccccc1)C(=O)NCc1nnc(-c2ccc(Oc3ccccc3)cc2)s1 test_system="human endothelial lipase (EL) (Homo sapiens)" assay_value=111

[A] O=C(CCCCCc1ccc(F)cc1)C(=O)NCc1nnc(-c2ccc3ccccc3c2)o1
[B] O=C(CCCCCCc1ccccc1)C(=O)NCc1nnc(-c2cccnc2)o1
Asked: Task for the reader: decide whether A or B has the larger IC50. Choose, then provide that item's label.
Given back: B
(B: 5220 nM, A: 613 nM)

[I] COc1cccc(OCCCCCC(=O)C(=O)NCc2nnc(-c3ccc(Oc4ccccc4)cc3)o2)c1
[II] O=C(CCCCCCc1ccccc1)C(=O)NCc1nnc(-c2ccc(OCc3ccncc3)cc2)s1
Asked: Between I and II , which one shows the smaller IC50 number? Choose, then provide that item's label.
Given back: II
(II: 32 nM, I: 872 nM)

====

# test.system: human endothelial lipase (EL) (Homo sapiens, UniProt Q9Y5X9)
# method.summary: Endothelial Lipase Assay, cell surface lipase activity (human)
# stated.conditions: cells expressing human EL, PLA1 substrate 10 μM, fluorescence reaction rate; several values in a cell are repeat determinations
pIC50: −log10 of the molar value.
metric: pIC50

Example entries begin here.
smiles_string=O=C(CCCCCCc1ccccc1)C(=O)NCc1nnc(-c2cccc(C(F)(F)F)c2)o1 assay_value=6.16
smiles_string=O=C(CCCCCCc1ccc(F)nc1)C(=O)NCc1nnc(-c2ccc(OCc3ccnc(F)c3)cc2)s1 assay_value=6.97

[a] O=C(CCCCCOc1cc(F)cc(F)c1)C(=O)NCc1nnc(-c2ccc(OCc3ccccc3)cc2)o1
[b] COc1ccc(COc2ccc(-c3nnc(CNC(=O)C(=O)CCCCCCc4ccccc4)o3)cc2)cc1
Asked: Between a and b , which one shows the smaller pIC50 number? Choose, then provide that item's label.
Given back: b

[1] COc1cccc(-c2nnc(CNC(=O)C(=O)CCCCCCc3ccccc3)o2)c1
[2] O=C(CCCCCCc1ccccc1)C(=O)NCc1nnc(-c2ccccc2Cl)o1
Asked: Task for the reader: decide whether 1 or 2 has the larger pIC50. Choose, then provide that item's label.
Given back: 2

[1] O=C(CCCCCCc1cncnc1)C(=O)NCc1nnc(-c2ccc(Oc3ccccc3)cc2)o1
[2] O=C(CCCCCNc1ncccn1)C(=O)NCc1nnc(-c2ccc(OCc3ccccc3)cc2)o1
[3] O=C(CCCCCOc1cc(F)ccc1F)C(=O)NCc1nnc(-c2ccc(OCc3ccccc3)cc2)o1
Asked: Returns the items ordered by pIC50, from maximum to minimum. List labels; respect the requested ordering.
Given back: 3, 1, 2
(3: 6.03, 1: 5.82, 2: 4.55)

====

# test.system: human endothelial lipase (EL) (Homo sapiens, UniProt Q9Y5X9)
# method.summary: Endothelial Lipase Assay, cell surface lipase activity (human)
# stated.conditions: cells expressing human EL, PLA1 substrate 10 μM, fluorescence reaction rate; several values in a cell are repeat determinations
pIC50: −log10 of the molar value.
metric: pIC50

compound="O=C(CCCCCCc1ccc(F)nc1)C(=O)NCc1nnc(-c2ccc(OCc3ccccn3)cc2)s1 [Compound 167]" assay_value=6.44

[1] COc1ccc(C#CCCCC(=O)C(=O)NCc2nnc(-c3ccccc3)o2)cc1 [Compound 41]
[2] N#Cc1ccc(CCCCCCC(=O)C(=O)NCc2nnc(-c3ccccc3)o2)cc1 [Compound 44]
Asked: Task for the reader: decide whether 1 or 2 has the larger pIC50. Choose, then provide that item's label.
Given back: 2
(2: 6.02, 1: 4.57)

====

# test.system: Mouse EL (Mus musculus, UniProt Q9WVG5)
# Sequence (Q9WVG5 21-500): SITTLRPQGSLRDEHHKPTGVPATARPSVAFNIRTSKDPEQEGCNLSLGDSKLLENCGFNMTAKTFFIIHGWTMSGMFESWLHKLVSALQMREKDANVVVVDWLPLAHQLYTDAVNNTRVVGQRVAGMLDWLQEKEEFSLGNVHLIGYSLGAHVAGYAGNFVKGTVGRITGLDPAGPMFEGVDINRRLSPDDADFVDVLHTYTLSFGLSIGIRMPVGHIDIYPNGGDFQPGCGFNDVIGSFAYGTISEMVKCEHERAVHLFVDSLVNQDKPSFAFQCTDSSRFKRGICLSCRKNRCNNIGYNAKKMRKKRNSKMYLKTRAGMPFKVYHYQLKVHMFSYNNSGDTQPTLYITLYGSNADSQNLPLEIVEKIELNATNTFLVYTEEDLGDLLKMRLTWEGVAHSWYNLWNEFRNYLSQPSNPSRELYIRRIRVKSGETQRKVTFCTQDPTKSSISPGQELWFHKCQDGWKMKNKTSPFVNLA
# method.summary: Endothelial Lipase Assay, cell surface lipase activity (mouse)
# stated.conditions: PLA1 substrate 10 μM, fluorescence reaction rate, several values in a cell are repeat determinations
pIC50: −log10 of the molar value.
metric: pIC50

Example entries begin here.
smiles_string=O=C(CCCCCc1ccccc1)C(=O)NCc1nnc(-c2ccccc2)o1 test_system="Mouse EL (Mus musculus, UniProt Q9WVG5)" metric=pIC50 assay_value=5.47
smiles_string=O=C(CCCCCOc1cccc(F)c1)C(=O)NCc1nnc(-c2ccc(Oc3cccc(Cl)c3)cc2)o1 test_system="Mouse EL (Mus musculus, UniProt Q9WVG5)" metric=pIC50 assay_value=6.19
smiles_string=O=C(CCCCCCc1ccc(F)nc1)C(=O)NCc1nnc(-c2ccc(OCc3ccnc(Cl)c3)cc2)s1 test_system="Mouse EL (Mus musculus, UniProt Q9WVG5)" metric=pIC50 assay_value=7.21
smiles_string=COC(=O)c1cccc(COc2ccc(-c3nnc(CNC(=O)C(=O)CCCCCCc4ccc(F)nc4)s3)cc2)c1 test_system="Mouse EL (Mus musculus, UniProt Q9WVG5)" metric=pIC50 assay_value=7.85
smiles_string=CN(C)C(=O)c1cccc(COc2ccc(-c3nnc(CNC(=O)C(=O)CCCCCCc4ccccc4)s3)cc2)c1 test_system="Mouse EL (Mus musculus, UniProt Q9WVG5)" metric=pIC50 assay_value=7.32

[P] O=C(CCCCCCc1ccccc1)C(=O)NCc1nnc(-c2ccc(Oc3ccc(F)cc3)cc2)o1
[Q] O=C(CCCCCCc1ccccc1)C(=O)NCc1nnc(-c2ccc(OCc3ccncc3F)cc2)s1
Asked: Between P and Q , which one shows the smaller pIC50 number? Choose, then provide that item's label.
Given back: P

[I] CN(Cc1ccccc1)c1ccc(-c2nnc(CNC(=O)C(=O)CCCCCCc3ccccc3)o2)cc1
[II] O=C(CCCCCOc1cccc(F)c1F)C(=O)NCc1nnc(-c2ccc(Oc3ccccc3)cc2)o1
Asked: Between I and II , which one shows the smaller pIC50 number? Choose, then provide that item's label.
Given back: II
(II: 6.09, I: 6.50)

[P] O=C(CCCCC#Cc1ccccc1)C(=O)NCc1nnc(-c2ccccc2)o1
[Q] O=C(CCCCCc1ccc(F)cc1)C(=O)NCc1nnc(-c2ccc3ccccc3c2)o1
Asked: Task for the reader: decide whether P or Q has the larger pIC50. Choose, then provide that item's label.
Given back: Q
(Q: 6.32, P: 5.58)
